- Test system: Bacillus subtilis
- procedureSummary: Antibacterial activity against Bacillus subtilis at 600 ug/ml after overnight incubation
- Assay type: functional
- conditionDescription: read-out: IZ
Some molecules, each annotated with its measured zone of inhibition at 600 µg/mL.

cpdSmiles	zone of inhibition at 600 µg/mL, mm
c1ccc(-c2nnc(CN3CCC(n4nc5ccccc5n4)CC3)o2)cc1	2.65
Brc1cccc(-c2nnc(CN3CCC(n4nc5ccccc5n4)CC3)o2)c1	4.25
O=[N+]([O-])c1ccc(-c2nnc(CN3CCC(n4nc5ccccc5n4)CC3)o2)cc1Cl	5.89
Fc1cccc(-c2nnc(CN3CCC(n4nc5ccccc5n4)CC3)o2)c1F	4.8
Cc1ccc(-c2nnc(CN3CCC(n4nc5ccccc5n4)CC3)o2)cc1Br	4.25
CN[C@@H]1[C@H](O[C@H]2[C@H](O[C@H]3[C@H](O)[C@@H](O)[C@H](N=C(N)N)[C@@H](O)[C@@H]3N=C(N)N)O[C@@H](C)[C@]2(O)C=O)O[C@@H](CO)[C@H](O)[C@H]1O	8.44
Cc1c(Br)cccc1-c1nnc(CN2CCC(n3nc4ccccc4n3)CC2)o1	4.8
COc1cccc(-c2nnc(CN3CCC(n4nc5ccccc5n4)CC3)o2)c1	4.25
CC(C)(C)c1cc(-c2nnc(CN3CCC(n4nc5ccccc5n4)CC3)o2)cc(C(C)(C)C)c1	5.05

###

- System: Staphylococcus aureus
- procedureSummary: Antibacterial activity against Staphylococcus aureus at 900 ug/ml after overnight incubation
- Assay type: functional
- conditionDescription: read-out: IZ

cpdSmiles	zone of inhibition at 900 µg/mL / mm
Fc1cccc(-c2nnc(CN3CCC(n4nc5ccccc5n4)CC3)o2)c1F	7.56
Cc1ccc(-c2nnc(CN3CCC(n4nc5ccccc5n4)CC3)o2)cc1Br	11.2
O=[N+]([O-])c1ccc(-c2nnc(CN3CCC(n4nc5ccccc5n4)CC3)o2)cc1Cl	10.2
c1ccc(-c2nnc(CN3CCC(n4nc5ccccc5n4)CC3)o2)cc1	8.25
Cc1c(Br)cccc1-c1nnc(CN2CCC(n3nc4ccccc4n3)CC2)o1	10
Brc1cccc(-c2nnc(CN3CCC(n4nc5ccccc5n4)CC3)o2)c1	8.25
CC(C)(C)c1cc(-c2nnc(CN3CCC(n4nc5ccccc5n4)CC3)o2)cc(C(C)(C)C)c1	9.05
CN[C@@H]1[C@H](O[C@H]2[C@H](O[C@H]3[C@H](O)[C@@H](O)[C@H](N=C(N)N)[C@@H](O)[C@@H]3N=C(N)N)O[C@@H](C)[C@]2(O)C=O)O[C@@H](CO)[C@H](O)[C@H]1O	20

###

- System: Proteus vulgaris
- procedureSummary: Antibacterial activity against Proteus vulgaris at 600 ug/ml after overnight incubation
- Format: functional
- conditionDescription: read-out: IZ
Quick reference: zone of inhibition at 600 µg/mL of the listed items.
propertyName: zone of inhibition at 600 µg/mL (mm)

cpdSmiles	subjectOfTest	propertyName	measurementUnit	readoutNumber
Fc1cccc(-c2nnc(CN3CCC(n4nc5ccccc5n4)CC3)o2)c1F	Proteus vulgaris	zone of inhibition at 600 µg/mL	mm	4.56
Cc1c(Br)cccc1-c1nnc(CN2CCC(n3nc4ccccc4n3)CC2)o1	Proteus vulgaris	zone of inhibition at 600 µg/mL	mm	3.45
CN[C@@H]1[C@H](O[C@H]2[C@H](O[C@H]3[C@H](O)[C@@H](O)[C@H](N=C(N)N)[C@@H](O)[C@@H]3N=C(N)N)O[C@@H](C)[C@]2(O)C=O)O[C@@H](CO)[C@H](O)[C@H]1O	Proteus vulgaris	zone of inhibition at 600 µg/mL	mm	8.9
c1ccc(-c2nnc(CN3CCC(n4nc5ccccc5n4)CC3)o2)cc1	Proteus vulgaris	zone of inhibition at 600 µg/mL	mm	3.8
Brc1cccc(-c2nnc(CN3CCC(n4nc5ccccc5n4)CC3)o2)c1	Proteus vulgaris	zone of inhibition at 600 µg/mL	mm	2.25
Cc1ccc(-c2nnc(CN3CCC(n4nc5ccccc5n4)CC3)o2)cc1Br	Proteus vulgaris	zone of inhibition at 600 µg/mL	mm	4.85
CC(C)(C)c1cc(-c2nnc(CN3CCC(n4nc5ccccc5n4)CC3)o2)cc(C(C)(C)C)c1	Proteus vulgaris	zone of inhibition at 600 µg/mL	mm	4.95
O=[N+]([O-])c1ccc(-c2nnc(CN3CCC(n4nc5ccccc5n4)CC3)o2)cc1Cl	Proteus vulgaris	zone of inhibition at 600 µg/mL	mm	4.85
COc1cccc(-c2nnc(CN3CCC(n4nc5ccccc5n4)CC3)o2)c1	Proteus vulgaris	zone of inhibition at 600 µg/mL	mm	4.36
